SYSTEM_TESTED: HER-2 (Homo sapiens, UniProt P04626)
Construct: the nucleotides encoding amino acids 679 to 1255 of HER-2; HIS6-Thrombin (His6 tag and thrombin site) (N)
Sequence (P04626 679-1255): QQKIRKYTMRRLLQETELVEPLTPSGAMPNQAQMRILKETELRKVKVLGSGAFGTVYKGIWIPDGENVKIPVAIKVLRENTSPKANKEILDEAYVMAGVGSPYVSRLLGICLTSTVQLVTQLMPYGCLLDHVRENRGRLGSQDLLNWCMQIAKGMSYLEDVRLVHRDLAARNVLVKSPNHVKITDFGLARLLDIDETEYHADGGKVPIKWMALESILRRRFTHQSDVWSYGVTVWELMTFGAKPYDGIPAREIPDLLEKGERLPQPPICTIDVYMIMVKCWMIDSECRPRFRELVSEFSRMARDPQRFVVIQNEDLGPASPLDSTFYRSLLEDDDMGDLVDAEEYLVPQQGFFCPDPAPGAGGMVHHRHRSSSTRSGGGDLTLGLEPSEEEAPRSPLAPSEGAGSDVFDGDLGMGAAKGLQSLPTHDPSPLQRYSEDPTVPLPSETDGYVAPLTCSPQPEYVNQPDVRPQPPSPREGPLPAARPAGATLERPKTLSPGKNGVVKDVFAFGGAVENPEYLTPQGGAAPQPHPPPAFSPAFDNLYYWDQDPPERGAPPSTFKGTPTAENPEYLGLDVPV
METHOD: HER-2 Kinase Assay
CONDITION_DESCRIPTION: GST-HER2, 1 μM ATP
Recorded measurements of IC50, one per entry

Request: Consider the compound shown here: "Cc1cc2c(F)c(Oc3ncnc4sc(C(=O)Nc5ccc(CN6CCOCC6)cc5)c(C)c34)ccc2[nH]1" What is its recorded IC50?
Result: > 100 µM

Request: Try "Cc1cc2c(F)c(Oc3ncnc4sc(C(=O)NCCN5CCCCC5)c(C)c34)ccc2[nH]1" next.
Result: > 100 µM

Request: Next record, please: "Cc1c(C(=O)NCCCN2CCOCC2)sc2ncnc(Nc3ccc(NC(=O)c4ccccc4)cc3)c12"
Result: > 10 µM

Request: Input "COCCNC(=O)c1sc2ncnc(Oc3ccc4[nH]c(C)cc4c3F)c2c1C"
Result: > 10 µM

Request: Check "Cc1c(C(=O)Nc2ccc(CN3CCOCC3)cc2)sc2ncnc(Nc3ccc(Oc4ccccc4)cc3)c12" too.
Result: > 100 µM

----------
Catalogue of pIC50 values
System: A375 malignant melanoma
METHOD: Cell Proliferation Inhibition Assay (14C-thymidine incorporation), A375
Format: cell-based
CONDITION_DESCRIPTION: Homo sapiens, A-375; A375 cells
pIC50: −log10 of the molar value.

Request: Request the reported pIC50 associated with Cc1cc2c(F)c(Oc3ncnc4sc(C(=O)NCCN5CCOCC5)c(C)c34)ccc2[nH]1 [Cpd 19]
Result: < 5.00

Request: # iterate: COCCNC(=O)c1sc2ncnc(Oc3ccc4[nH]c(C)cc4c3F)c2c1C [Cpd 27]
Result: < 5.00

Request: Moving on to the next compound: Cc1c(C(=O)NCCCN2CCOCC2)sc2ncnc(Nc3ccc(NC(=O)c4ccccc4)cc3)c12 [Cpd 26]
Result: < 5.00

Request: Also check Cc1c(C(=O)NCCN2CCOCC2)sc2ncnc(Nc3ccc(NC(=O)c4ccccc4)cc3)c12 [Cpd 25]
Result: < 5.00

Request: Next compound: Cc1c(C(=O)NCCN2CCOCC2)sc2ncnc(Nc3ccc(Oc4ccccc4)cc3)c12 [Cpd 24]
Result: < 5.00

----------
SYSTEM_TESTED: EGFR (Homo sapiens, UniProt P00533)
Construct: The intracellular portion of EGFR started at nucleotide 2189 (corresponding to amino acid 667) and ended at the termination codon; made in house; host or cells: Sf9 insect cells (baculovirus)
Sequence (P00533 669-1210 limits assumed): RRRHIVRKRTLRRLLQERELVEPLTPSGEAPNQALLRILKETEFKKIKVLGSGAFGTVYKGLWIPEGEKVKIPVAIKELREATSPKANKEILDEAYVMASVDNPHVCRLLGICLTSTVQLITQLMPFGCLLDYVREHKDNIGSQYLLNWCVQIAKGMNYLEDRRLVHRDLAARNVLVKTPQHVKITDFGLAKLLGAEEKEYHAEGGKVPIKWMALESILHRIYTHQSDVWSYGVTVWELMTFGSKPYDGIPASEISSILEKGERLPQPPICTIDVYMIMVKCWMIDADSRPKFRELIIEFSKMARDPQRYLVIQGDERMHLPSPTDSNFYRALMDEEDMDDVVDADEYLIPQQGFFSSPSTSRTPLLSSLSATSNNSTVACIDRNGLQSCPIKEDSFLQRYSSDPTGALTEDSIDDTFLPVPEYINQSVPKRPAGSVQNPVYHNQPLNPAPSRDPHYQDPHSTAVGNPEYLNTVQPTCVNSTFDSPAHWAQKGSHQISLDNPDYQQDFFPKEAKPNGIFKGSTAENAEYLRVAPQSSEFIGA
METHOD: EGFR Kinase Assay
Assay type: biochemical
CONDITION_DESCRIPTION: GST-EGFR intracellular portion, 5 μM ATP
pIC50: −log10 of the molar value.
OUTCOME_MEASURE: pIC50

(I) Nc1c(C(=O)Nc2ccc(CN3CCOCC3)cc2)sc2ncnc(Nc3ccc(F)c(Cl)c3)c12
(II) COc1ccc(NC(=O)c2sc3ncnc(Nc4ccc(F)c(Cl)c4)c3c2N)cc1
Request: // which entry has the larger pIC50 value, I or II ? Answer by stating the label of the chosen item.
Result: I
(I: 10.07, II: 9.62)

----------
pIC50: −log10 of the molar value.
Hi! I'm sharing some pIC50 results obtained with Aurora-A (Mus musculus).
Sequence (P97477 whole entry): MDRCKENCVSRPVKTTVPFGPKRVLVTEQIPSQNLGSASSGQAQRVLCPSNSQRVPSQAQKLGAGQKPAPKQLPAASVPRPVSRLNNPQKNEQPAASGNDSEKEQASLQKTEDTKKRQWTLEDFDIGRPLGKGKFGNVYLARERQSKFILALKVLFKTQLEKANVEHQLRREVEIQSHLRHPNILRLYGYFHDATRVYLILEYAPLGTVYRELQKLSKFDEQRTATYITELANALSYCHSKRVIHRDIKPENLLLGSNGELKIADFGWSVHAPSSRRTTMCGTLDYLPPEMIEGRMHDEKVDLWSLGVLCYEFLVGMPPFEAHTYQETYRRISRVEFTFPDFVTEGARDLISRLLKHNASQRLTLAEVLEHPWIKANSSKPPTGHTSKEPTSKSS

Sample answers from the record:
                               smiles_entry  outcome_measure  test_value
0  Cc1c(C(=O)Nc2ccc(CN3CCOCC3)cc2)sc2ncnc(Nc3ccc(Oc4ccccc4)cc3)c12            pIC50      < 4.00
1  Cc1cc2c(F)c(Oc3ncnc4sc(C(=O)NCCN5CCOCC5)c(C)c34)ccc2[nH]1            pIC50      < 4.00
2  Cc1cc2c(F)c(Oc3ncnc4sc(C(=O)NCCN5CCCC5)c(C)c34)ccc2[nH]1            pIC50      < 4.00

Request: So what's the measured pIC50 for this one? "Cc1c(C(=O)NCCCN2CCOCC2)sc2ncnc(Nc3ccc(NC(=O)c4ccccc4)cc3)c12"
Result: < 6.00

src = patent US20080108611A1
